Listing of entries alongside the reported IC50.
target-desc: RORγ (Homo sapiens, UniProt P51449)
Construct: expressed in transfected cells; host or cells: 293FT cells (Invitrogen), expression vector pFN26A (Promega)
experiment: RORγ GAL4 reporter gene assay
Type: cell-based
applied-conditions: inhibition of RORγ activity, GAL4-RORγ-LBD luciferase reporter in 293FT cells, overnight incubation; read-out: mean pIC50 (converted)

Check out these entries, answers already filled in.
>  <chem-smiles>
O=C(Cc1ccc(S(=O)(=O)CC2CC2)cc1)Nc1ccc(C(=O)N(c2ccccn2)C2CCC2)cc1

>  <IC50>
≤ 10 nM

$$$$
>  <chem-smiles>
CN(CCc1ccccc1)C(=O)c1ccc(NC(=O)Cc2ccc(S(=O)(=O)CC3CC3)cc2)cc1

>  <IC50>
≤ 100 nM

$$$$
>  <chem-smiles>
O=C(Cc1ccc(S(=O)(=O)CC2CC2)cc1)Nc1ccc(C(=O)N(c2ccccn2)C2CC2)cc1

>  <IC50>
≤ 100 nM

$$$$

Notebook: CCCN(C(=O)c1ccc(NC(=O)Cc2ccc(S(=O)(=O)CC3CC3)cc2)cc1)c1cc(C)on1 , IC50 read as ≤ 10 nM

====

Listed compounds paired with reported IC50
target-desc: RORγ (Homo sapiens, UniProt P51449)
Construct: expressed in transfected cells; host or cells: 293FT cells (Invitrogen), expression vector pFN26A (Promega)
Sequence (P51449 269-508 limits assumed): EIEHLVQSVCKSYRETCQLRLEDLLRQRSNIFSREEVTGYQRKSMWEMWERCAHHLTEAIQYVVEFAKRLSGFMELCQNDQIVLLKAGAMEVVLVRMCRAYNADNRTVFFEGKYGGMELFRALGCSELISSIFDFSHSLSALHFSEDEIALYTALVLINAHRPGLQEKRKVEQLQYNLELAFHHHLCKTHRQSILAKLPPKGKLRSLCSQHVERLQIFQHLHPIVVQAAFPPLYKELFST
experiment: RORγ GAL4 reporter gene assay
Assay type: cell-based
applied-conditions: inhibition of RORγ activity, GAL4-RORγ-LBD luciferase reporter in 293FT cells, overnight incubation; read-out: mean pIC50 (converted)

Reference set (8 entries):
>  <chem-smiles>
CCN(C(=O)c1ccc(NC(=O)Cc2ccc(S(=O)(=O)CC3CC3)cc2)cc1C)c1ccccc1

>  <reported-measurement>
≤ 0.1 µM

$$$$
>  <chem-smiles>
CCN(C(=O)c1ccc(NC(=O)Cc2ccc(S(=O)(=O)CC3CC3)cc2)cc1Cl)c1ccccc1C

>  <reported-measurement>
≤ 0.01 µM

$$$$
>  <chem-smiles>
CCN(C(=O)c1ccc(NC(=O)Cc2ccc(S(=O)(=O)CC3CC3)cc2)cc1)c1cc(C)nn1C

>  <reported-measurement>
≤ 0.01 µM

$$$$
>  <chem-smiles>
CN(C(=O)c1ccc(NC(=O)Cc2ccc(S(=O)(=O)CC3CC3)cc2)cc1)C1CCCCC1

>  <reported-measurement>
≤ 1 µM

$$$$
>  <chem-smiles>
CCCN(C(=O)c1ccc(NC(=O)Cc2ccc(S(=O)(=O)NC3CC3)cc2)cc1)c1cccnc1

>  <reported-measurement>
≤ 1 µM

$$$$
>  <chem-smiles>
CCN(C(=O)c1ccc(NC(=O)Cc2ccc(S(=O)(=O)NC3CC3)cc2)cc1)c1cc(C)no1

>  <reported-measurement>
≤ 0.1 µM

$$$$
>  <chem-smiles>
CCN(C(=O)c1ccc(NC(=O)Cc2ccc(S(=O)(=O)CC3CC3)cc2)cc1)c1ccccc1

>  <reported-measurement>
≤ 0.01 µM

$$$$
>  <chem-smiles>
CCCN(C(=O)c1ccc(NC(=O)Cc2ccc(S(=O)(=O)CC3CC3)cc2)cc1)c1ccccc1

>  <reported-measurement>
≤ 0.01 µM

$$$$

Now look at this entry.
Reported IC50 of CN(C(=O)c1ccc(NC(=O)Cc2ccc(S(=O)(=O)CC3CC3)cc2)cc1)c1ccccn1 : ≤ 0.1 µM

====

The entries below are paired with their reported IC50.
target-desc: RORγ (Homo sapiens)
Construct: expressed in transfected cells; host or cells: 293FT cells (Invitrogen), expression vector pFN26A (Promega)
experiment: RORγ GAL4 reporter gene assay
Type: cell-based
applied-conditions: inhibition of RORγ activity, GAL4-RORγ-LBD luciferase reporter in 293FT cells, overnight incubation; read-out: mean pIC50 (converted)

>  <compound>
CCCN(C(=O)c1ccc(NC(=O)Cc2ccc(S(=O)(=O)CC3CC3)cc2)cc1)c1nccs1 [Example 83]

>  <target-desc>
RORγ (Homo sapiens)

>  <IC50>
≤ 10 nM

$$$$
>  <compound>
CN(C(=O)c1ccc(NC(=O)Cc2ccc(S(=O)(=O)CC3CC3)cc2)cc1)c1ccccc1 [Example 3]

>  <target-desc>
RORγ (Homo sapiens)

>  <IC50>
≤ 10 nM

$$$$
>  <compound>
CCN(C(=O)c1ccc(NC(=O)Cc2ccc(S(=O)(=O)CC3CC3)cc2)cc1)c1cc(C)on1 [Example 89]

>  <target-desc>
RORγ (Homo sapiens)

>  <IC50>
≤ 10 nM

$$$$
>  <compound>
O=C(Cc1ccc(S(=O)(=O)CC2CC2)cc1)Nc1ccc(C(=O)Nc2ccccc2OC(F)(F)F)cc1 [Example 74]

>  <target-desc>
RORγ (Homo sapiens)

>  <IC50>
≤ 100 nM

$$$$
>  <compound>
CN(C(=O)c1ccc(NC(=O)Cc2ccc(S(=O)(=O)CC3CC3)cc2)cc1)c1nccs1 [Example 85]

>  <target-desc>
RORγ (Homo sapiens)

>  <IC50>
≤ 1000 nM

$$$$

Lab note: compound CCN(C(=O)c1ccc(NC(=O)Cc2ccc(S(=O)(=O)CC3CC3)cc2)cc1Cl)c1cccc(C)c1C [Example 120] tested on RORγ (Homo sapiens); recorded IC50 was ≤ 100 nM

// compound CCCN(Cc1ccccc1)C(=O)c1ccc(NC(=O)Cc2ccc(S(=O)(=O)CC3CC3)cc2)cc1 [Example 21] , assay RORγ (Homo sapiens), IC50 value: ≤ 10 nM

====

target-desc: RORγ (Homo sapiens, UniProt P51449)
Construct: expressed in transfected cells; host or cells: 293FT cells (Invitrogen), expression vector pFN26A (Promega)
experiment: RORγ GAL4 reporter gene assay
Assay type: cell-based
applied-conditions: inhibition of RORγ activity, GAL4-RORγ-LBD luciferase reporter in 293FT cells, overnight incubation; read-out: mean pIC50 (converted)
observable: IC50

>  <chem-smiles>
CCN(C(=O)c1ccc(NC(=O)Cc2ccc(S(=O)(=O)NC3CC3)cc2)c(C)c1)c1ccccc1

>  <reported-measurement>
≤ 1 µM

$$$$
>  <chem-smiles>
CCN(C(=O)c1ccc(NC(=O)Cc2ccc(S(=O)(=O)CC3CC3)cc2)cc1C)c1ccccc1Cl

>  <reported-measurement>
≤ 0.01 µM

$$$$
>  <chem-smiles>
Cc1cc(NC(=O)Cc2ccc(S(=O)(=O)CC3CC3)cc2)ccc1C(=O)N(C)c1ccccc1C

>  <reported-measurement>
≤ 0.01 µM

$$$$
>  <chem-smiles>
CCN(C(=O)c1ccc(NC(=O)Cc2ccc(S(=O)(=O)CC3CC3)cc2)cc1)c1cccnc1

>  <reported-measurement>
≤ 0.1 µM

$$$$
>  <chem-smiles>
CC(C)(NC(=O)c1ccc(NC(=O)Cc2ccc(S(=O)(=O)CC3CC3)cc2)cc1)c1cccnc1

>  <reported-measurement>
≤ 1 µM

$$$$

--- query ---
Please fill in: IC50 reported for CCN(C(=O)c1ccc(NC(=O)Cc2ccc(S(=O)(=O)CC3CC3)cc2)cc1)c1ccon1 = ≤ 0.01 µM

====

Entries annotated with measured IC50
target-desc: RORγ (Homo sapiens, UniProt P51449)
Construct: expressed in transfected cells; host or cells: 293FT cells (Invitrogen), expression vector pFN26A (Promega)
experiment: RORγ GAL4 reporter gene assay
Assay type: cell-based
applied-conditions: inhibition of RORγ activity, GAL4-RORγ-LBD luciferase reporter in 293FT cells, overnight incubation; read-out: mean pIC50 (converted)

Look over these answered cases.
>  <compound>
CCN(Cc1cc(C)on1)C(=O)c1ccc(NC(=O)Cc2ccc(S(=O)(=O)CC3CC3)cc2)cc1

>  <reported-measurement>
≤ 100 nM

$$$$
>  <compound>
CC(C)(C)N(C(=O)c1ccc(NC(=O)Cc2ccc(S(=O)(=O)NC3CC3)cc2)cc1)c1ccccc1

>  <reported-measurement>
≤ 10 nM

$$$$
>  <compound>
O=C(Cc1ccc(S(=O)(=O)CC2CC2)cc1)Nc1ccc(C(=O)N(c2ccccn2)C2CCOC2)cc1 (stereo not shown)

>  <reported-measurement>
≤ 100 nM

$$$$

The value of IC50 measured for the compound CCN(C(=O)c1ccc(NC(=O)Cc2ccc(S(=O)(=O)NC3CC3)cc2)nc1)c1ccccc1 turned out to be ≤ 1000 nM

Entry O=C(Cc1ccc(S(=O)(=O)NC2CC2)cc1)Nc1ccc(C(=O)N(Cc2ccccc2)Cc2ccccc2)cc1 ; IC50 = ≤ 100 nM

Record CCNC(=O)c1ccc(NC(=O)Cc2ccc(S(=O)(=O)CC3CC3)cc2)cc1 , field IC50: ≤ 1000 nM

The measured IC50 associated with CCN(C(=O)c1ccc(NC(=O)Cc2ccc(S(=O)(=O)CC3CC3)cc2)cc1)c1nnc(C)s1 reads ≤ 100 nM

// CC(C)(NC(=O)c1ccc(NC(=O)Cc2ccc(S(=O)(=O)CC3CC3)cc2)cc1)c1ccccc1 : IC50 value = ≤ 100 nM

From: patent US10315996B2
